Assay Overview: qHTS for Inhibitors of Cell Surface uPA Generation; further: nearly all actives have a fitted effect of over 55% in size
Experimental Setup: cell surface uPA generation assay; series mostly up to 38.3 µM
Hit rate of the full screen: of about 330,000 compounds, about 1,000 (0.3%) were called active. Inconclusive results (about 3%) are left out. The call rests on the fitted dose curve; in most records, active means well fitted inhibition curve with a large enough effect; inconclusive means small, poorly fitted or top-dose-only effect; inactive means no such curve, though single readings can be large or run the other way; tested in mouse RAW 264.7 cells. The sample holds actives, similar compounds and a random draw of the others, so the mix is not that of the screen.
Please reply with one of these outcomes: active, inactive

{"Compound Structure": "S=C(Nc1ccccc1)Nc1ccc2ccccc2c1", "Qualitative Label": "inactive"}

What call does the record list for CCN1CCN(CCNC(=O)c2ccc(/C=C3/Sc4ccccc4N(Cc4cccc(C)c4)C3=O)cc2)CC1 ?
active

What call does the record list for O=C(NCCCN1CCOCC1)c1ccc2c(c1)N(Cc1cccc(F)c1)C(=O)c1ccccc1S2 ?
inactive

What call does the record list for COC(=O)CNC(=O)c1cc(-c2ccncc2)nc2ccccc12 ?
inactive

What call does the record list for CN1CCN(CCCNC(=O)c2ccc(/C=C3\Oc4ccccc4N(Cc4ccc(Cl)cc4)C3=O)cc2)CC1 ?
inactive

What call does the record list for O=C(Cc1ccc([N+](=O)[O-])cc1)NCCc1ccc2c(c1)OCO2 ?
inactive

What call does the record list for COc1cc(C(=O)CCc2ccc3c(c2)OCO3)cc(OC)c1OC ?
inactive

What call does the record list for CC1CCN(c2ccc(C(=O)NCc3ccc4c(c3)OCO4)cc2[N+](=O)[O-])CC1 ?
inactive

What call does the record list for CCN(CC)CCNC(=O)c1ccc(NC(=O)c2cc(-c3ccncc3)nc3ccccc23)cc1 ?
active

What call does the record list for O=C(NCc1ccc2c(c1)OCO2)c1cc([N+](=O)[O-])ccc1N1CCOCC1 ?
active

====

Assay Overview: qHTS for Inhibitors of Cell Surface uPA Generation; further: nearly all actives have a fitted effect of over 55% in size
Experimental Setup: cell surface uPA generation assay; series mostly up to 38.3 µM
Description: The overall objective of this project is to perform a quantitative high throughput screen (qHTS) to identify novel compounds that inhibit the generation of cell surface urokinase activity. […] Cultured RAW 264.7 were dispensed into 1536-well clear bottom, white walled tissue culture plates at a density of 4000 cells/well and were incubated overnight (12-16 h) at 37 C in a 5% CO2 incubator. […] Luminescence was detected using a Perkin Elmer ViewLuxtrade mark plate reader. […]
In all, about 330,000 compounds went through this assay and about 1,000 (0.3%) were called active. About 3% were inconclusive and are not listed. Calls follow the shape of the dose curve; as a rule, active = well fitted inhibition curve with a large enough effect; inconclusive = small, poorly fitted or top-dose-only effect; inactive = no such curve, though single readings can be large or run the other way; tested in mouse RAW 264.7 cells. Many of the other results were omitted from the sample, so actives are more common in it than they were.
Please reply with one of these outcomes: active, inactive

{"Compound": "Cc1nc2cc(NC(=O)Nc3cccc(F)c3)ccc2n1C", "Qualitative Label": "active"}

What call does the record list for CCOC(=O)c1ccccc1OC(=O)Oc1ccccc1C(=O)OCC ?
inactive

What call does the record list for O=C(Nc1ncccc1O)c1ccc(S(=O)(=O)N2CCCCCC2)cc1 ?
inactive

What call does the record list for CC(C)(C)c1nnc2sc(SCC(O)=C(C#N)c3nc4ccccc4[nH]3)nn2c1=O ?
inactive

What call does the record list for COc1cc(/C=N\NC(=O)c2nonc2N)c(OC)cc1Br ?
active

What call does the record list for O=C(NNC(=O)c1ccccc1O)c1ccccc1O ?
inactive

What call does the record list for CCOC(=O)c1c(C)[nH]c2c1-c1ccccc1C(=O)C2=O ?
active
